system.tested: HSD17B10 (Homo sapiens, UniProt Q99714)
Construct: made in house
Sequence (Q99714 whole entry): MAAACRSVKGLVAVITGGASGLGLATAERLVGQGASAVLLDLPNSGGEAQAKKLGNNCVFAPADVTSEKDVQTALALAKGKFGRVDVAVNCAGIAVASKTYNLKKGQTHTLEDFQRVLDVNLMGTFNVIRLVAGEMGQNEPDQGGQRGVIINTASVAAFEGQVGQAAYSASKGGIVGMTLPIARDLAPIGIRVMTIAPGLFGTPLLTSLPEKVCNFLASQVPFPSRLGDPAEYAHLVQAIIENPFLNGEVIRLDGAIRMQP
assay.details: Steroid substrate panel against HSD17B family member B10
Assay type: biochemical
reported.conditions: substrate at 50 μM; estradiol set as 100%

compound: C[C@H](O)[C@@]1(O)CC[C@H]2[C@@H]3CC[C@@H]4C[C@H](O)CC[C@]4(C)[C@H]3CC[C@@]21C
Percent of Control (POC), B10: 26.4%
//
compound: C[C@]12CC[C@@H](O)C[C@@H]1CC[C@@H]1[C@@H]2CC[C@]2(C)C(=O)[C@H](O)C[C@@H]12 [16alpha-Hydroxyandrosterone]
Percent of Control (POC), B10: 69.7%
//
compound: C[C@]12CC[C@@H](O)C[C@@H]1CC[C@@H]1[C@@H]2CC[C@]2(C)C(=O)CC[C@@H]12
Percent of Control (POC), B10: 91.0%

====

Consider the following compounds and their measured HSD17B13 Enzymatic Activity Percent Estradiol Control readings.
system.tested: UniProt Q7Z5P4
Sequence (Q7Z5P4 20-300): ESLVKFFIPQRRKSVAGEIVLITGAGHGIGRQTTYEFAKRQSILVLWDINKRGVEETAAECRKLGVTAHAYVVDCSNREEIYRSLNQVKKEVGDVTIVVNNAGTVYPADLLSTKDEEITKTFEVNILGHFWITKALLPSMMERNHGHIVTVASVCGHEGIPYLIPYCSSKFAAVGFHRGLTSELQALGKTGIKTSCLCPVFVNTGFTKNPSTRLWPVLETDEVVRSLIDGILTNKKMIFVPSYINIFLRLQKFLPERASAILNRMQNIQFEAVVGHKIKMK
assay.details: Substrate screening of steroid and bioactive lipid libraries against purified recombinant HSD17B13 (NADH-linked luciferase assay)
Type: biochemical
reported.conditions: Bioactive Lipid Library, 5 μM bioactive lipid, normalized to 50 μM estradiol after subtraction of 5% DMSO
measured.attribute: HSD17B13 Enzymatic Activity Percent Estradiol Control (%)

compound: CC/C=C\C[C@H](O)/C=C/[C@H]1OC(O)C[C@H](O)[C@@H]1C/C=C\CCCC(=O)O (stereo partly shown)
system.tested: UniProt Q7Z5P4
reported.value: 5.14
//
compound: CC/C=C\CC1OC1C/C=C\C/C=C\C/C=C\CCCC(=O)O (racemic) [(±)14(15)-EpETE]
system.tested: UniProt Q7Z5P4
reported.value: 1.86
//
compound: CCCCC/C=C\C\C=C/C=C/C=C/[C@@H]1O[C@H]1CCCC(=O)OC
system.tested: UniProt Q7Z5P4
reported.value: 14.23
//
compound: CC/C=C\C[C@H](O)/C=C/[C@@H]1[C@H]2C/C(=C/CCCC(=O)[O-])O[C@H]2C[C@H]1O.[Na+] [Prostaglandin I3 (sodium salt)]
system.tested: UniProt Q7Z5P4
reported.value: 3.99
//
compound: CC/C=C\C/C=C\C/C=C\C/C=C\C=C\C(O)C/C=C\CCC(=O)O (racemic) [(±)7-HDHA]
system.tested: UniProt Q7Z5P4
reported.value: 5.54
//
compound: CCCCC/C=C\C\C=C/C=C/C=C/[C@@H](SC[C@H](NC(=O)CC[C@@H](N)C(=O)O)C(=O)O)[C@@H](O)CCCC(=O)O
system.tested: UniProt Q7Z5P4
reported.value: 9.27
//
compound: C[C@@H](O)CCC[C@@H](O)/C=C/[C@H]1[C@H](O)CC(=O)[C@@H]1CCCCCCC(=O)O [15(R),19(R)-hydroxy Prostaglandin E1]
system.tested: UniProt Q7Z5P4
reported.value: 3.96
